Where do the numbers come from? From patent US20260297083A1.

Known IC50 of a selection of compounds
Target: Polθ polymerase domain (amino acids 1792-2590) (Homo sapiens)
Sequence (O75417 1792-2590): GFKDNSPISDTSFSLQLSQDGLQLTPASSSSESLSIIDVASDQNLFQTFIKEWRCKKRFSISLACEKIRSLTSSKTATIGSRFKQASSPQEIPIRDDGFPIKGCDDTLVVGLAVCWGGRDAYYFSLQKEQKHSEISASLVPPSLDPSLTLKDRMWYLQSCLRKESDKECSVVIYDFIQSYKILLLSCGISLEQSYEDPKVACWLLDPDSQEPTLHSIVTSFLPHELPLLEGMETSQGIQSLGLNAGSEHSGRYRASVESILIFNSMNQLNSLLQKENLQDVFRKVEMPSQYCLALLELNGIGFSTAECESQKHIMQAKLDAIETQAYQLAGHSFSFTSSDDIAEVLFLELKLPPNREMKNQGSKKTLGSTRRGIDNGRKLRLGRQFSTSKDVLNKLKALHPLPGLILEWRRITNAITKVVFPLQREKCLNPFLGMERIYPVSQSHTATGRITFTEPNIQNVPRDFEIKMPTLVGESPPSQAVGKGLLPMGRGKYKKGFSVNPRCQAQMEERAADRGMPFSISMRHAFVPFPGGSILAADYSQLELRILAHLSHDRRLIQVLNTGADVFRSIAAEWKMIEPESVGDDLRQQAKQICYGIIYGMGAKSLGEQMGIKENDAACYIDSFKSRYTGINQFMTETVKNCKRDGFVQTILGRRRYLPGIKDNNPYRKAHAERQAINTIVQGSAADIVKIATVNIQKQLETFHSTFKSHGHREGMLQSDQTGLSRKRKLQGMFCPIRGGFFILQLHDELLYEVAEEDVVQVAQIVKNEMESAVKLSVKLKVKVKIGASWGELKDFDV
Property Name: IC50

In [3]: df
Out[3]:
                                item_smiles  property_name    meas_value
0  C=CC(=O)Nc1cccnc1C#CCN(C(=O)[C@@H]1CCS(=O)(=O)N1c1cc(C(F)(F)F)cc(C)n1)c1ccc(F)c(C)c1           IC50    1 to 50 nM
1  Cc1cc(C(F)(F)F)cc(N2[C@H](C(=O)N(CC#Cc3ccc(N)nn3)c3ccc(F)c(C)c3)CN(C(C)C)S2(=O)=O)n1           IC50    1 to 50 nM
2  Cc1cc(C(F)(F)F)cc(N2[C@H](C(=O)N(CC#Cc3cc(N4CCOCC4)ncn3)c3ccc(F)c(C)c3)CCS2(=O)=O)n1           IC50    1 to 50 nM
3  C=CC(=O)Nc1cncc(C#CCN(C(=O)[C@@H]2CCS(=O)(=O)N2c2cc(C(F)(F)F)cc(C)n2)c2ccc(F)c(C)c2)c1           IC50    1 to 50 nM
4  Cc1cc(C(F)(F)F)cc(N2[C@H](C(=O)N(CC#Cc3cc(C)c(F)c(C)n3)c3ccc(F)c(C)c3)CCS2(=O)=O)n1           IC50  51 to 100 nM
5  Cc1cc(C(F)(F)F)cc(N2C(=O)CC[C@H]2C(=O)N(CC#Cc2ccc(N)nn2)c2ccc(F)c(C)c2F)n1           IC50    1 to 50 nM

====

Biological target: Polθ polymerase domain (amino acids 1792-2590) (Homo sapiens)
Sequence (O75417 1792-2590): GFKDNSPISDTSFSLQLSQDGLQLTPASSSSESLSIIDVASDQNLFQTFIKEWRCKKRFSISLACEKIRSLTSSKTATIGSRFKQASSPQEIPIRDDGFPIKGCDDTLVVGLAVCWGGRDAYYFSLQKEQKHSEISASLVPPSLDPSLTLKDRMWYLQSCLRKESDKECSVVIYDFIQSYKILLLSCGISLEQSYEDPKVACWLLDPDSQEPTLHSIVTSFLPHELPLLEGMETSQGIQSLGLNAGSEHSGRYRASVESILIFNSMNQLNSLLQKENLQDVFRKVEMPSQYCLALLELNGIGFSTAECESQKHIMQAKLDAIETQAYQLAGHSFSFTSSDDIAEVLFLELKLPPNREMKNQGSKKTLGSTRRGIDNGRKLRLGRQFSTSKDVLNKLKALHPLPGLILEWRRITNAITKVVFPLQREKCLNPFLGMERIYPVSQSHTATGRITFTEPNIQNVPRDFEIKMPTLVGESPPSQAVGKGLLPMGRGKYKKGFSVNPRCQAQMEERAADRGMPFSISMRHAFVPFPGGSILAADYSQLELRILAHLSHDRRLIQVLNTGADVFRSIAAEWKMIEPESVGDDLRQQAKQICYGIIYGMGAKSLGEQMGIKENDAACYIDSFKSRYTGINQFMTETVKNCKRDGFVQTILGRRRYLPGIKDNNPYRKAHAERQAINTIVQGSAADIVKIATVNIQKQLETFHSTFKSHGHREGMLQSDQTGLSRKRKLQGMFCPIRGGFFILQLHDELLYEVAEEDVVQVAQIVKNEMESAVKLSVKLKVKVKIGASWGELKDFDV
pIC50: −log10 of the molar value.
Property Name: pIC50

>>> print(df.to_string())
                                    molecule    meas_value
 0  Cc1cc(C(F)(F)F)cc(N2C(=O)CC[C@H]2C(=O)N(CC#Cc2ccc(N)nn2)c2ccc(F)c(Cl)c2F)n1 [compound 4]  7.30 to 9.00
 1  Cc1cc(C(F)(F)F)cc(N2[C@H](C(=O)N(CC#Cc3cnc(C#N)cn3)c3ccc(F)c(C)c3)CCS2(=O)=O)n1 [compound 59]        < 7.00
 2  Cc1cc(C(F)(F)F)cc(N2C(=O)CC[C@H]2C(=O)N(CC#Cc2cnc(N3CCOCC3)cn2)c2ccc(F)c(C)c2)n1 [compound 10]  7.30 to 9.00
 3  Cc1cc(C(F)(F)F)cc(N2[C@H](C(=O)N(CC#Cc3nccc(N4CCOCC4)n3)c3ccc(F)c(C)c3)CCS2(=O)=O)n1 [compound 80]  7.30 to 9.00
 4  Cc1cc(C(F)(F)F)cc(N2[C@H](C(=O)N(CC#Cc3cccc(OC(C)C)n3)c3ccc(F)c(C)c3)CCS2(=O)=O)n1 [compound 88]        < 7.00
 5  Cc1cc(C(F)(F)F)cc(N2[C@H](C(=O)N(CC#Cc3cnc4c(c3)CN(C)C4=O)c3ccc(F)c(C)c3)CCS2(=O)=O)n1 [compound 98]  7.30 to 9.00
 6  Cc1cc(C(F)(F)F)cc(N2[C@H](C(=O)N(CC#Cc3cnc(N4CCOCC4)cn3)c3ccc(F)c(C)c3)CCS2(=O)=O)n1 [compound 39]  7.30 to 9.00
 7  Cc1cc(C(F)(F)F)cc(N2[C@H](C(=O)N(CC#Cc3cnc(C(=O)N4CCOCC4)cn3)c3ccc(F)c(C)c3)CCS2(=O)=O)n1 [compound 69]  7.30 to 9.00
 8  C=CC(=O)Nc1ccc(C#CCN(C(=O)[C@@H]2CCS(=O)(=O)N2c2cc(C(F)(F)F)cc(C)n2)c2ccc(F)c(C)c2)nn1 [compound 129]  7.30 to 9.00
 9  C=CC(=O)Nc1cncc(C#CCN(C(=O)[C@@H]2CCS(=O)(=O)N2c2cc(C(F)(F)F)cc(C)n2)c2ccc(F)c(C)c2)n1 [compound 128]  7.30 to 9.00
10  Cc1cc(C(F)(F)F)cc(N2[C@H](C(=O)N(CC#Cc3ccc(NC(C)C)nn3)c3ccc(F)c(C)c3)CCS2(=O)=O)n1 [compound 20]  7.30 to 9.00
11  Cc1cc(C(F)(F)F)cc(N2[C@H](C(=O)N(CC#Cc3cnc4c(c3)C(C)(C)N(C)C4=O)c3ccc(F)c(C)c3)CCS2(=O)=O)n1 [compound 99]  7.30 to 9.00
12  Cc1cc(C(F)(F)F)cc(N2[C@H](C(=O)N(CC#Cc3cncc(C(=O)N4CC5CCC(C4)N5)n3)c3ccc(F)c(C)c3)CCS2(=O)=O)n1 [compound 73]  7.30 to 9.00
